Cited source: patent US20250214969A1

Can you tell me IC50 for the items I'm about to list?
- targetSystem: truncated His-MBP-Tev-KLHDC2 (residues 1-363) (Homo sapiens, UniProt Q9Y2U9)
- Construct: truncated His -MBP-Tev-KLHDC2 (residues 1-363) purified from E. coli; made in house; host or cells: E. coli
- Sequence (Q9Y2U9 1-363): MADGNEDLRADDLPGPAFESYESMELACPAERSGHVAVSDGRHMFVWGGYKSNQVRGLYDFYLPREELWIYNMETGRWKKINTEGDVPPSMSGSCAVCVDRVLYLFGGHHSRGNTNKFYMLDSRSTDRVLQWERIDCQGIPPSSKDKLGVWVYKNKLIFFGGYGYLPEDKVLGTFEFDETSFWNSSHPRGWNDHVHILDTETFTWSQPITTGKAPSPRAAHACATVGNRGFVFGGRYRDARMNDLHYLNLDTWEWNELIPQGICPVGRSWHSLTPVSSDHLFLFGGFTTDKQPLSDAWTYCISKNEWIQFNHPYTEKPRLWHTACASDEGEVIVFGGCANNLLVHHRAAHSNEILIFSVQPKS
- assayName: KLHDC2 HTRF binding assay
- runParameters: 1 nM KLHDC2 (residues 1-363), fluorescein-labeled diglycine peptide probe

The examples below pair each entry with its known result.
[[record]]
molecule = "O=C(O)Cc1cc(NC(=O)c2cccc(-c3cccnc3)c2)ccc1F [I-55]"
measuredattribute = "IC50"
result = "0.5 to 5 µM"

[[record]]
molecule = "O=C(O)Cn1cc(NC(=O)c2cccc(-c3cccnc3)c2)c(C2CC2)cc1=O [I-62]"
measuredattribute = "IC50"
result = "0.5 to 5 µM"

[[record]]
molecule = "COc1cc(-c2ccc(F)cc2)ccc1C(=O)Nc1ccc(=O)n(CC(=O)O)c1 [I-155]"
measuredattribute = "IC50"
result = "0.05 to 0.5 µM"

[[record]]
molecule = "O=C(O)Cn1cc(NC(=O)c2ccc(-c3ccccc3Cl)o2)ccc1=O [I-255]"
measuredattribute = "IC50"
result = "> 5 µM"


For every item below, please supply its IC50.
1. O=C(O)Cn1cc(NC(=O)CC2Cc3ccc(Cl)cc3C2=O)ccc1=O (stereo not drawn) [I-235]
2. CCc1ccc(C(=O)Nc2ccc(=O)n(CC(=O)O)c2)cc1-c1ccccc1 [I-182]
3. O=C(Nc1ccc(=O)n([C@@H](F)C(=O)O)c1)c1cccc(-c2cccnc2)c1 [I-51]
4. Cc1ccc(CC(C)C)cc1-c1ccc(=O)n(CC(=O)O)c1 [I-334]
5. O=C(O)Cn1cc(N2Cc3ccccc3C2=O)ccc1=O [I-307]

["> 5 µM", "0.5 to 5 µM", "0.5 to 5 µM", "> 5 µM", "> 5 µM"]
